- test_target: Gonadotropin-releasing hormone receptor (Rattus norvegicus, UniProt P30969)
- Sequence (P30969 whole entry): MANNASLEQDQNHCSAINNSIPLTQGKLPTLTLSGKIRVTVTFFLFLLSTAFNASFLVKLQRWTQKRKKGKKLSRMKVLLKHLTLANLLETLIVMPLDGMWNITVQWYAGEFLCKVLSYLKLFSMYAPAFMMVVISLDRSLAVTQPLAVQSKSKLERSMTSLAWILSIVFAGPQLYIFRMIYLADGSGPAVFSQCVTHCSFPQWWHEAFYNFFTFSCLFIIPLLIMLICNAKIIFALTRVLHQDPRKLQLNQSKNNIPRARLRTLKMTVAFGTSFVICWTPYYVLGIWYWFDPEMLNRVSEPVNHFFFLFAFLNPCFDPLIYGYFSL
- assay_method_text: Displacement of [125I]-(D-Trp6)LHRH from rat recombinant GnRH receptor
log10 IC50 values by entry
Field: value | Transform: log10 | Quantity: IC50 | Unit: µM

> print(dat)
                            molecule.smiles  measurement
1  FC(F)(F)c1nc2c(N3CCN(Cc4cccc5nc(C(F)(F)F)[nH]c45)CC3)cccc2[nH]1         1.81
2  CC(C)(C)c1ccc(-c2nc3c(N4CCN(CCOc5cccc6nc(C(F)(F)F)[nH]c56)CC4)cccc3[nH]2)cc1        -0.15
3  CC(C)(C)c1ccc(-c2nc3c(N4CCN(Cc5cccc6[nH]c(=O)c(=O)[nH]c56)CC4)cccc3[nH]2)cc1        -1.14
4  CCc1ccc(-c2nc3c(N4CCN(CCOc5cccc6nc(C(F)(F)F)[nH]c56)CC4)cccc3[nH]2)cc1         0.72
5  CC(C)(C)c1ccc(-c2nc3c(N4CCN(Cc5ccc6[nH]c(=O)c(=O)[nH]c6c5)CC4)cccc3[nH]2)cc1        -1.40
6  CC(C)(C)c1ccc(-c2nc3c(N4CCN(Cc5cccc6[nH]c(=O)[nH]c56)CC4)cccc3[nH]2)cc1        -0.17
7  FC(F)(F)c1nc2c(N3CCN(Cc4cccc5[nH]c(=S)[nH]c45)CC3)cccc2[nH]1         1.71

The record that follows has no log10 IC50 shown yet.
Could you tell me which log10 IC50 is on file for "FC(F)(F)c1nc2c(N3CCN(CCOc4cccc5nc(C(F)(F)F)[nH]c45)CC3)cccc2[nH]1" ? 1.18
